Origin of measurements: ChEMBL document CHEMBL5038581

TESTED_ON: CYP3A4 (Homo sapiens, UniProt P08684)
Sequence (P08684 whole entry): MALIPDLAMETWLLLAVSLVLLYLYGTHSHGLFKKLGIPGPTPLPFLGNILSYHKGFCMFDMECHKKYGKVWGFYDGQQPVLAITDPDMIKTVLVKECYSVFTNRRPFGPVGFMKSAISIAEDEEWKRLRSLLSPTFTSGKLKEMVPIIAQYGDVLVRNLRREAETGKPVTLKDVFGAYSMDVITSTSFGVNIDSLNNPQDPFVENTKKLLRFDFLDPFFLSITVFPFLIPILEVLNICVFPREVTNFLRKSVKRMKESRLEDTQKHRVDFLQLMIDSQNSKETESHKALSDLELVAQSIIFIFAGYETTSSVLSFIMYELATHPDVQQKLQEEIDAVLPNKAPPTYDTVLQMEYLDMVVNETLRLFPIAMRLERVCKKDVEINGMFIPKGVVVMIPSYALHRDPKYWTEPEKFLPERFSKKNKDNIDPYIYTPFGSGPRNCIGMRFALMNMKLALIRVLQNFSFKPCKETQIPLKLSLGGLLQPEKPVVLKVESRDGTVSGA
PROCEDURE_DETAILS: in vitro
SETTINGS: probe testosterone
RESULT_TYPE: inhibition at 0.1 µM (%)
One number for each entry, in %.

Input CC(=O)N1CCN(c2ccc(OCC3COC(Cn4ccnc4)(c4ccc(Cl)cc4Cl)O3)cc2)CC1 (stereo unspecified) . Output inhibition at 0.1 µM: 65.9

---

Consider the following molecules; for each one, report its IC50.
System: NCI-N87
PROCEDURE_DETAILS: cells
SETTINGS: Homo sapiens, NCI-N87, 72 h
Answers are plain numbers, in µM.

The value of IC50 recorded for "C/C(=N\NC(=O)c1cccc(S(=O)(=O)N2CCOCC2)c1)c1cc(Cl)ccc1O" when tested on NCI-N87 reads 10.5

Note: attention shifts to another entry.
Summary line: "Cc1ccc(-c2cc(/C=C/c3ccc(C(=O)NO)cc3)ccn2)c(F)c1" , NCI-N87, reported IC50 = 0.23

---

TESTED_ON: UniProt Q9BY41
Sequence (Q9BY41 whole entry): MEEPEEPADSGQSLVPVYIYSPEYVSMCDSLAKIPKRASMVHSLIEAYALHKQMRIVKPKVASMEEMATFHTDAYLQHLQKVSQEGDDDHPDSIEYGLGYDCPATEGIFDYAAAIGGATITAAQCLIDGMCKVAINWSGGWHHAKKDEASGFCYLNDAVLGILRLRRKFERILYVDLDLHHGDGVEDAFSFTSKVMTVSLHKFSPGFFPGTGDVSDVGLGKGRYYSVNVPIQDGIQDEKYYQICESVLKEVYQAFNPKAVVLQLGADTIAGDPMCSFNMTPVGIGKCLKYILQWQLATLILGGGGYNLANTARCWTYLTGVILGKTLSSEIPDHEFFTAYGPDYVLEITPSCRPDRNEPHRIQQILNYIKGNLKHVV
RESULT_TYPE: IC50 (µM)
Give bare numbers, in µM.

Lab note: measured IC50 of "Cc1ccc(-c2cc(/C=C/c3ccc(C(=O)NO)cc3)ccn2)c(F)c1" was 8.78

---

System: MGC-803
PROCEDURE_DETAILS: cells
SETTINGS: Homo sapiens, MGC-803, 72 h
Mark each entry fulfilled if its IC50 sits below 3000 nM, and not fulfilled for all others.

Problem: A record lists "Cc1ccc(-c2cc(/C=C/c3ccc(C(=O)NO)cc3)ccn2)c(F)c1" . Is its IC50 below 3000 nM?
Solution: fulfilled

Problem: For "O=C(NO)c1ccc(/C=C/c2ccnc(-c3cccc(CO)c3)c2)cc1" , is the recorded IC50 below the cut-off of 3000 nM?
Solution: fulfilled

Problem: Lab log: compare recorded IC50 with 3000 nM; is it strictly lower for "O=C(NO)c1ccc(/C=C/c2ccnc(-c3ccc(C(F)(F)F)cc3)c2)cc1" ?
Solution: not fulfilled

Problem: Regarding "Cc1ccc(-c2cc(/C=C/c3ccc(C(=O)NO)cc3)ccn2)cc1" , kindly confirm whether its IC50 is beneath 3000 nM.
Solution: fulfilled

Problem: For this compound, is IC50 lower than 3000 nM? "O=C(NO)c1ccc(/C=C/c2ccnc(-c3cccnc3)c2)cc1"
Solution: not fulfilled

Problem: Hi there! Is IC50 for "O=C(NO)c1cccc(/C=C/c2ccnc(-c3cc(F)ccc3O)c2)c1" below 3000 nM, do you know?
Solution: fulfilled

Problem: Item "O=C(NO)c1cccc(/C=C/c2ccnc(-c3ccccc3O)c2)c1" : IC50 beneath 3000 nM, strictly?
Solution: fulfilled

Problem: Could you please tell me whether IC50 recorded for "O=C(NO)c1ccc(/C=C/c2cccc(-c3cccc(O)c3)c2)cc1" is less than 3000 nM?
Solution: not fulfilled

Problem: Given "COc1ccc(-c2cc(/C=C/c3ccc(C(=O)NO)cc3)ccn2)cc1" , is recorded IC50 strictly lower than 3000 nM?
Solution: not fulfilled

Then this compound:
Problem: Is it true that IC50 reported for "COc1ccc(F)cc1-c1cncc(/C=C/c2ccc(C(=O)NO)cc2)c1" is less than 3000 nM?
Solution: not fulfilled

---

TESTED_ON: Protein deacetylase HDAC6 (Homo sapiens)
Sequence (Q9UBN7 whole entry): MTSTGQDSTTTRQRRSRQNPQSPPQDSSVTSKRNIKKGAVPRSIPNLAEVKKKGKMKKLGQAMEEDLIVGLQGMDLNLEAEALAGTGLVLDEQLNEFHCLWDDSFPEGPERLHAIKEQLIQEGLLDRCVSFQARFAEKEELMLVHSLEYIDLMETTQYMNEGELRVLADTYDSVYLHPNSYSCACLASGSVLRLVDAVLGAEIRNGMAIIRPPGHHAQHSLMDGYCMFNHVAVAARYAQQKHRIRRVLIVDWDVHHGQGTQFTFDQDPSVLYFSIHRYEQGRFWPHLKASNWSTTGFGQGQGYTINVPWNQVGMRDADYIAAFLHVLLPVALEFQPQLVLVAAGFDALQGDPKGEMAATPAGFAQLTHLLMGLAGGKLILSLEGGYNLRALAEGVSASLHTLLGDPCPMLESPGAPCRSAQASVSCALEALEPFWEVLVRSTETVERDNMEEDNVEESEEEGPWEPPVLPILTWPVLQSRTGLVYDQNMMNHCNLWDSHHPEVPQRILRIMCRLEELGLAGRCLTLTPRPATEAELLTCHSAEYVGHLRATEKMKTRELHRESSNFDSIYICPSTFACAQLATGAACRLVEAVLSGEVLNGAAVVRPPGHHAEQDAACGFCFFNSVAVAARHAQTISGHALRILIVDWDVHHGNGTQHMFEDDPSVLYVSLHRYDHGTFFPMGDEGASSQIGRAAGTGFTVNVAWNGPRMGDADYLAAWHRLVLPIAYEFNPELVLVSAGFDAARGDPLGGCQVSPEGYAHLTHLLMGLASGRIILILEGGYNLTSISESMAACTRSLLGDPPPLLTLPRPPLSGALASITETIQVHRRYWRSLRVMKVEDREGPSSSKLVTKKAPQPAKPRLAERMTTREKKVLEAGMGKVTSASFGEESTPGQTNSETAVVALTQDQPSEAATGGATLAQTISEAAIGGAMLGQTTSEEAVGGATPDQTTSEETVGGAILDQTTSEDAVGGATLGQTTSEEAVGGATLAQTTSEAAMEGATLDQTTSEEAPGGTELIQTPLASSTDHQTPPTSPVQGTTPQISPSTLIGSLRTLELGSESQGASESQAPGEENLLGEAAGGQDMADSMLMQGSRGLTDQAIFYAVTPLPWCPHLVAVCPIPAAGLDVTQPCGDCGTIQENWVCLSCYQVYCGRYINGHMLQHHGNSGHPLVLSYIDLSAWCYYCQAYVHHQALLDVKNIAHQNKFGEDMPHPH
pIC50: −log10 of the molar value.
Threshold check on pIC50: at or above 7 gives Fulfilled, strictly below gives Not fulfilled.

Here's what some known entries look like.
Problem: API: above_or_equal(metric=pIC50, cutoff=7) for item "O=C(NO)c1ccc(/C=C/c2cccc(-c3cc(F)ccc3O)c2)cc1"
Solution: Not fulfilled

Problem: Confirm if pIC50 reported for the molecule "O=C(NO)c1ccc(/C=C/c2ccnc(-c3ccccc3O)c2)cc1" is 7 or above.
Solution: Fulfilled

Problem: Would you say "O=C(NO)c1ccc(/C=C/c2ccnc(-c3cccnc3)c2)cc1" shows pIC50 at minimum 7?
Solution: Fulfilled

---
Problem: pIC50 >= 7 for "O=C(NO)c1ccc(/C=C/c2ccnc(Br)c2)cc1" ?
Solution: Not fulfilled

Problem: Has "O=C(NO)c1ccc(/C=C/c2cncc(-c3ccccc3O)c2)cc1" a recorded pIC50 greater than or equal to 7?
Solution: Fulfilled

Problem: Identify whether the reported pIC50 of the following molecule is 7 or greater: "O=C(NO)c1ccc(/C=C/c2ccnc(-c3cccc(O)c3)c2)cc1"
Solution: Fulfilled

---

Record form. Attribute: IC50. Fill in for each entry.
System: BGC-823
PROCEDURE_DETAILS: cells
SETTINGS: Homo sapiens, BGC-823, 72 h

Lab book: IC50 of "N[C@H]1CC[C@H](N[C@@H]2C[C@H]2c2ccccc2)CC1" noted as > 50 µM

IC50 for "Cc1ccc(-c2cc(/C=C/c3ccc(C(=O)NO)cc3)ccn2)c(F)c1" is 1.5 µM

Lab note: next compound to report on.
Lab book: IC50 of "C/C(=N\NC(=O)c1cccc(S(=O)(=O)N2CCOCC2)c1)c1cc(Cl)ccc1O" noted as 8.08 µM

---

TESTED_ON: Histone deacetylase 1 (Homo sapiens, UniProt Q13547)
Sequence (Q13547 whole entry): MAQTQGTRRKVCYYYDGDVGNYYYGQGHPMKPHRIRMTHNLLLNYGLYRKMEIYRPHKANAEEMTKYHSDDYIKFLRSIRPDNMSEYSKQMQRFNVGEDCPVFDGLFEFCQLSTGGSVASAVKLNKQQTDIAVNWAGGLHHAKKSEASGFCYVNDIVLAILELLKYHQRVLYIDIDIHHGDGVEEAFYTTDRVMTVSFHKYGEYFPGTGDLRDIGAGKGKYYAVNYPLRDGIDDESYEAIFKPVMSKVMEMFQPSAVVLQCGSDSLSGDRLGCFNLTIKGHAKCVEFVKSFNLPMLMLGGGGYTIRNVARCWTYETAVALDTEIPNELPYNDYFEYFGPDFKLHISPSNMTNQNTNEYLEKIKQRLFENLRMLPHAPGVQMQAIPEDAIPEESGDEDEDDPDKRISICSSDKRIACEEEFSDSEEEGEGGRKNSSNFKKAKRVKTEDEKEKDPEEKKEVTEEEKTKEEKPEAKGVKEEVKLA
Field: pIC50. Provide a value for each of the molecules that follow.
Numbers only, as −log10 of the molar value.

Record summary for "O=C(/C=C/c1ccc(/C=C/c2ccnc(-c3ccccc3O)c2)cc1)NO" : reported pIC50 = 6.33

// each molecule listed below needs its pIC50
1. COc1ccccc1-c1cc(/C=C/c2ccc(C(=O)NO)cc2)ccn1
2. O=C(NO)c1ccc(/C=C/c2ccnc(-c3cccc(O)c3)c2)cc1

Solution:
1. 5.98
2. 6.54

For each listed entry, give its pIC50.
1. Cc1ccc(-c2cncc(/C=C/c3ccc(C(=O)NO)cc3)c2)c(F)c1
2. Cc1ccc(-c2cc(/C=C/c3ccc(C(=O)NO)cc3)c(F)cn2)c(F)c1
3. Cc1ccc(-c2cc(/C=C/c3ccc(C(=O)NO)cc3)ccn2)c(F)c1
4. O=C(NO)c1ccc(/C=C/c2ccnc(-c3cccc(CO)c3)c2)cc1
5. O=C(NO)c1ccc(/C=C/c2ccnc(-c3ccc(C(F)(F)F)cc3)c2)cc1

Solution:
5.97
6.06
6.43
6.55
5.32

Hello, I would appreciate it if you could give pIC50 for each entry below.
1. O=C(NO)c1ccc(/C=C/c2cccc(-c3ccccc3O)c2)cc1
2. O=C(NO)c1ccc(/C=C/c2ccnc(Br)c2)cc1

Solution:
1: 6.03; 2: 5.44
